Data provenance: patent US9371365B2

# Tgt: C3b (Homo sapiens, UniProt P01024)
# Construct: biotin (chemical biotinylation of C3b)
# Sequence (P01024 23-667 limits assumed): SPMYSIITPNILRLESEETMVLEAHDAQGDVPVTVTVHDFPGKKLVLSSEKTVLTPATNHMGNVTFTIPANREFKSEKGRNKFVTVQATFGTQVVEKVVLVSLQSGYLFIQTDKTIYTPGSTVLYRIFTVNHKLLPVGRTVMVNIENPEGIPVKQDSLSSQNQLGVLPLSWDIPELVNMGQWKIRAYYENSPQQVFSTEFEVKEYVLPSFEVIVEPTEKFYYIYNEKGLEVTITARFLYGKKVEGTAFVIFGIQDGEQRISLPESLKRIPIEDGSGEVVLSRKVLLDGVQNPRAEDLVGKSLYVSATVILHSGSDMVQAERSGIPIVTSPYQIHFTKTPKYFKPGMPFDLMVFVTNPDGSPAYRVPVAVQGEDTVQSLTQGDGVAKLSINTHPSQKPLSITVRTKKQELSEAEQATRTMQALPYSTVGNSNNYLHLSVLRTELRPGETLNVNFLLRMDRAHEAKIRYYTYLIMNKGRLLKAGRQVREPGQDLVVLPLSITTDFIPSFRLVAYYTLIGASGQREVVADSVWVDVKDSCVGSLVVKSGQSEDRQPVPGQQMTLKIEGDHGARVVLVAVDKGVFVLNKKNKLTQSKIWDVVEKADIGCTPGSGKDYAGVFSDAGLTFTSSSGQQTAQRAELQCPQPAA
# Sequence (P01024 749-1663 limits assumed): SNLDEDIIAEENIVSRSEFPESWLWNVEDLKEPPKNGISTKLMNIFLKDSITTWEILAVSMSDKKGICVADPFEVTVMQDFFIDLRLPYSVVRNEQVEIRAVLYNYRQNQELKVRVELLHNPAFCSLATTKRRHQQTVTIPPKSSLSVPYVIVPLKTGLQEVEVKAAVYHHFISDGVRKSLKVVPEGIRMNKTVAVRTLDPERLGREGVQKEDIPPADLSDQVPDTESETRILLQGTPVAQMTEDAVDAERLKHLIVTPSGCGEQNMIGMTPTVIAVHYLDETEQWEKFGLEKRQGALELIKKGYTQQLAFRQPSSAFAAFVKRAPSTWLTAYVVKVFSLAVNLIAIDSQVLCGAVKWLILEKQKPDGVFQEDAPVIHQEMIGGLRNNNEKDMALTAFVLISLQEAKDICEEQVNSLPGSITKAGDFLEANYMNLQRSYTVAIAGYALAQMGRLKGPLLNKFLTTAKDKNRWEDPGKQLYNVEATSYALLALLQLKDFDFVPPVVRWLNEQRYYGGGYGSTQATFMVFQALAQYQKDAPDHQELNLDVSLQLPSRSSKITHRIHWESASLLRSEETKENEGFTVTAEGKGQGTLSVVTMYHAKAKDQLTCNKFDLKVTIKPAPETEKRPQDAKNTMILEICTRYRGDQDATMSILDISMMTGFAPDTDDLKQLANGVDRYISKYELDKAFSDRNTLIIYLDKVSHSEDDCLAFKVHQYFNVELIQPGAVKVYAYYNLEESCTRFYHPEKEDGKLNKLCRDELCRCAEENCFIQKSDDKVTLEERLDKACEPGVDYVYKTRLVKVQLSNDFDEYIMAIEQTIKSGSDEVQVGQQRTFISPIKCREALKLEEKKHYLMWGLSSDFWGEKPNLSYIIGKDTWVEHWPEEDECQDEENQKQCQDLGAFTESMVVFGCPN
# Procedure summary: SPR analysis of binding kinetics to immobilized C3b
# Measurement conditions: relative to peptide 14
Bridge positions count the residues as written; N and C are the ends. Square brackets hold non-standard residues; d marks the D form. Peptide text beside a SMILES is read from it. Trp(1-Me) = Cn1cc(C[C@H](N)C(=O)O)c2ccccc21; Sar = CNCC(=O)O
Attribute measured: rKD SPR
Keep the answer to the number alone.

## Input // map CC[C@H](C)[C@H](NC(C)=O)C(=O)N[C@H]1CSSC[C@@H](C(=O)N(C)[C@H](C(N)=O)[C@@H](C)CC)NC(=O)[C@H](CCCNC(=N)N)NC(=O)[C@H](Cc2c[nH]cn2)NC(=O)[C@H](C)NC(=O)CN(C)C(=O)[C@H](Cc2c[nH]c3ccccc23)NC(=O)[C@H](CC(=O)O)NC(=O)[C@H](CCC(N)=O)NC(=O)[C@H](Cc2cn(C)c3ccccc23)NC(=O)[C@H](C(C)C)NC1=O [Peptide 21] to recorded rKD SPR (system: C3b (Homo sapiens, UniProt P01024))
## Output 5.2

## Input // map CC[C@H](C)[C@H](NC(C)=O)C(=O)N[C@H]1CSSC[C@@H](C(=O)N[C@@H](CC(C)C)C(N)=O)NC(=O)[C@H](CCCNC(=N)N)NC(=O)[C@H](Cc2c[nH]cn2)NC(=O)[C@H](C)NC(=O)CN(C)C(=O)[C@H](Cc2c[nH]c3ccccc23)NC(=O)[C@H](CC(=O)O)NC(=O)[C@H](CCC(N)=O)NC(=O)[C@H](Cc2cn(C)c3ccccc23)NC(=O)[C@H](C(C)C)NC1=O [Peptide 18, Ac−Ic[CV(^1−MeW)QDW(^N−MeG)AHRC]L-NH2] (Ac-ICV[Trp(1-Me)]QDW[Sar]AHRCL-NH2; disulfide 2-12) to recorded rKD SPR (system: C3b (Homo sapiens, UniProt P01024))
## Output 2.6

* * *

# Procedure summary: In vivo retention: plasma half-life in baboons by LC-MS/MS
# Design: species or system baboon (P. Anubis)
# Measurement conditions: P. Anubis, baboon (P. Anubis), in vivo, iv, 10 mg
# Procedure: A 96-well plate HLB Oasis 10 mg (Waters, Milford, Mass.) was employed for extraction. The SPE material was conditioned by addition of 500 μl of methanol followed by addition of 500 μL of milli-Q water. Sample was prepared by addition of the internal standard followed by 1:1 dilution with 4% H3PO4. After loading the sample, washing was carried out with 500 μL of 5% methanol in 0.1% formic acid. Sample was eluted with 150 μL of 65% methanol in 0.1% formic acid and collected in the collection plate. […]
Attribute measured: half-life

## Input Suppose we examine the molecule CC[C@H](C)[C@H](NC(=O)[C@@H]1CSSC[C@H](NC(=O)[C@@H](NC(C)=O)[C@@H](C)CC)C(=O)N[C@@H](C(C)C)C(=O)N[C@@H](Cc2cn(C)c3ccccc23)C(=O)N[C@@H](CCC(N)=O)C(=O)N[C@@H](CC(=O)O)C(=O)N[C@@H](Cc2c[nH]c3ccccc23)C(=O)N(C)CC(=O)N[C@@H](C)C(=O)N[C@@H](Cc2c[nH]cn2)C(=O)N[C@@H](CCCNC(=N)N)C(=O)N1)C(N)=O [Peptide 17, Ac−Ic[CV(^1−MeW)QDW(^N−MeG)AHRC]I-NH2] ; what half-life value has been reported?
## Output ~1 h
